Each entry below lists one item and its recorded CAT inhibition (%) value.
Target: carnitine acetyltransferase (CAT) (Columba livia)
Construct: an enzyme isolated from pigeon breast muscle (Sigma Aldrich) was used in the form of an ammonium sulfate suspension; tissue Sigma-Aldrich; host or cells: pigeon breast muscle
Sequence (P52826 31-627): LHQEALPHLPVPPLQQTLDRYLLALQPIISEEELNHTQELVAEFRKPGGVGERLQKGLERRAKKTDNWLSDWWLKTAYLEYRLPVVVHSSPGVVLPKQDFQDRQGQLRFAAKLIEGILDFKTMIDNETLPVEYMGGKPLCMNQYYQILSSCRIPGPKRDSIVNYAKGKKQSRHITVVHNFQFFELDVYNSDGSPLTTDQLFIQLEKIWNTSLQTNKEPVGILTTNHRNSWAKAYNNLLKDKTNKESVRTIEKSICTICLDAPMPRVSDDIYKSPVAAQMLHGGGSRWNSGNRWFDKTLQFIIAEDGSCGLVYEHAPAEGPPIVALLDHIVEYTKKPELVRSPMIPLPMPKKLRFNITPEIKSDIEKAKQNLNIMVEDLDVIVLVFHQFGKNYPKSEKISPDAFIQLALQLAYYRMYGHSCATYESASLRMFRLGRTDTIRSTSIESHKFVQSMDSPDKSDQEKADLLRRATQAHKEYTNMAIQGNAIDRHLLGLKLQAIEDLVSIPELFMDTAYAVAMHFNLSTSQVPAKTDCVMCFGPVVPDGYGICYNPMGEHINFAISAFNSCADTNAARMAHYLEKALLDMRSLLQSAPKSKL
Test: Initial screening of CAT inhibition, spectrophotometric kinetic method with Ellman's reagent
Assay type: biochemical
Settings: inhibitor 100 μM; read in first minute of reaction; 100 µM
Observation Type: CAT inhibition (%)

[
  {
    "Compound": "CCCCCCCCCC1OC(=O)c2ccccc2C1C(=O)O (racemic) [trans-3]",
    "Unit": "%",
    "Number": 17
  },
  {
    "Compound": "CCCCCCCC1OC(=O)c2ccccc2C1C(=O)O (racemic) [trans-2]",
    "Unit": "%",
    "Number": 4
  },
  {
    "Compound": "CCCCCCCCCCC1OC(=O)c2ccccc2C1C(=O)O (racemic) [trans-4]",
    "Unit": "%",
    "Number": 54
  },
  {
    "Compound": "CCCCCCCCCCC1OC(=O)c2ccccc2C1C(=O)O (racemic) [cis-4]",
    "Unit": "%",
    "Number": 31
  }
]
